Test system: COLO 205 colon
Experiment: NCI tumour cell line growth inhibition, 48 h
QUANTITY KIND: TGI

Some solved entries appear below for comparison.
{"MOLECULE": "COc1ccc(NC(=O)CSc2nc(C)nc3c2sc(=S)n3-c2ccccc2)cc1", "ASSAY TARGET": "COLO 205 colon", "RESULT": "> 10 µM"}
{"MOLECULE": "NC(N)=NCCCC(Nc1c2ccccc2nc2ccccc12)C(=O)O (centres undefined)", "ASSAY TARGET": "COLO 205 colon", "RESULT": "> 100 µM"}
{"MOLECULE": "COC(=O)NC1=Nc2ccccc2C(=O)NN1", "ASSAY TARGET": "COLO 205 colon", "RESULT": "> 100 µM"}
{"MOLECULE": "CC1(C)COC(c2cccc(C(O)c3ccc(Cl)cc3)c2)=N1 (centres undefined)", "ASSAY TARGET": "COLO 205 colon", "RESULT": "34 µM"}
{"MOLECULE": "COc1cc2c3c(n(CCCNCCCCN)c(=O)c2cc1OC)-c1cc2c(cc1C3=O)OCO2", "ASSAY TARGET": "COLO 205 colon", "RESULT": "> 46 µM"}
{"MOLECULE": "COC(=O)COc1ccccc1/C=C1/N=C(c2ccccc2)N(c2c(C)n(C)n(-c3ccccc3)c2=O)C1=O", "ASSAY TARGET": "COLO 205 colon", "RESULT": "> 100 µM"}
{"MOLECULE": "Cc1cc(N(CCC#N)CCC#N)ccc1/C(Sc1ccccc1)=C(\\NC(=O)/C=C/c1ccccc1)C(=O)Sc1ccccc1", "ASSAY TARGET": "COLO 205 colon", "RESULT": "7.71 µM"}
{"MOLECULE": "CCCCN(CCCC)CC(C(=O)Nc1ccc([N+](=O)[O-])cc1[N+](=O)[O-])/C(C)=N\\NC(=O)c1ccncc1 (centres undefined)", "ASSAY TARGET": "COLO 205 colon", "RESULT": "> 100 µM"}

Please turn your attention to the following entry.
// sample `COC(=O)CSc1cc(Cl)c(C)cc1S(=O)(=O)Nc1n[nH]c(N)n1` , its TGI was > 10 µM

====

Tested on: PC-3 prostate
Assay: NCI tumour cell line growth inhibition, 48 h; in the data active = GI50 below about 0.43 µM; inactive = the rest
Hello, when you answer, please use one of the following outcomes: active, inactive

Record excerpt, results attached:
{"COMPOUND": "CC[C@]1(O)CC2CN(CCc3c([nH]c4ccccc34)C(C(=O)OC)(c3cc4c(cc3OC)N(C=O)[C@H]3[C@@](O)(C(=O)OC)[C@H](OC(C)=O)[C@]5(CC)[C@@H]6C[C@@H]6CN6CC[C@]43[C@@H]65)C2)C1 (stereo partly drawn)", "CLASS ASSIGNMENT": "active"}
{"COMPOUND": "O=C(NNC1=NS(=O)(=O)c2ccccc2N1c1ccccc1)c1cnccn1", "CLASS ASSIGNMENT": "inactive"}
{"COMPOUND": "N#Cc1ncc(-c2ccc(C(F)(F)F)cc2)c(NC2CCCCCC2)n1", "CLASS ASSIGNMENT": "inactive"}
{"COMPOUND": "N=C1C(c2nc3ccccc3c(=O)[nH]2)=C(O)CN1c1cccc(Cl)c1", "CLASS ASSIGNMENT": "inactive"}
{"COMPOUND": "CC(C)(Oc1cccc(N2CCC[C@@H](C(=O)N(Cc3ccc(-c4cn[nH]c4)cc3)C3CC3)C2)c1)C(=O)N1CCNCC1", "CLASS ASSIGNMENT": "inactive"}

Per the assay record, what outcome was assigned to `COc1ccc(/C=C/C(=O)C(=O)/C=C/c2ccc(OC)c(OC)c2)cc1OC` ?
inactive

Per the assay record, what outcome was assigned to `COc1ccc(-c2cc(-c3ccc(Cl)cc3)nc(SCCCC(=O)NO)n2)cc1OC` ?
inactive

Per the assay record, what outcome was assigned to `CC(C)N(CCNc1nc(C(Cl)(Cl)Cl)nc2cc(Cl)ccc12)C(C)C` ?
inactive
